test: passive permeability, PAMPA, ADME assay (AID 1508612); settings: pH 7.4, 30.0 min, 50.0 µM
Give Papp for every item shown.
One number for each entry, in ×10⁻⁶ cm/s.

• Cc1cc(NS(=O)(=O)c2ccc(NC(=O)Cc3ccc(F)c(Cl)c3)cc2)no1 = 10.4

Attention now shifts to the item below.
Provide Papp value for the following molecule: Cc1nc([N+](=O)[O-])cn1-c1ccc([N+](=O)[O-])cc1
27.9

###

assay: passive permeability, PAMPA, ADME assay (AID 1508612); settings: pH 7.4, 30.0 min, 50.0 µM
Assign class by Papp: not lower than 500 ×10⁻⁶ cm/s means label 1; lower than 500 ×10⁻⁶ cm/s means label 0.

Example results:
* CCOC(=O)CCNc1cc(N2CCc3ccccc3CC2)nc(-c2cccnc2)n1 | label 1
* CCOc1cc(-c2nccc3cc(OC)c(OC)cc23)cc(OCC)c1OCC | label 1
* O=C1CCCC2=C1C(c1[nH]ncc1Cl)N=C(Nc1nc3cccc(Cl)c3o1)N2 (configuration not stated) | label 1
* COc1cc2c3cc1Oc1c(O)c(OC)cc4c1[C@@H](Cc1ccc(cc1)Oc1cc(ccc1O)C[C@H]3N(C)CC2)N(C)CC4 | label 0
* Fc1cccc(F)c1Nc1nc(-c2ccncc2)nc2ccccc12 | label 1

Exam item: decide whether the reported Papp for Cc1ccc(S(=O)(=O)Nc2cnccc2C(=O)Nc2nc(-c3ccc(Oc4ccccc4)cc3)cs2)cc1 is at least 500 ×10⁻⁶ cm/s.
label 0

Exam item: decide whether the reported Papp for CCn1c(-c2nonc2N)nc2cnc(Oc3cccc(NC(=O)c4ccc(OCCN5CCOCC5)cc4)c3)cc21 is at least 500 ×10⁻⁶ cm/s.
label 0

Exam item: decide whether the reported Papp for CNC1(c2ccccc2Cl)CCCCC1=O (configuration not stated) is at least 500 ×10⁻⁶ cm/s.
label 1

Cited source: PubChem BioAssay AID1508612
